study-target: Human Recombinant ROCK-II Enzyme (ROKα/ROCK-II, aa 11-552) (Homo sapiens)
Construct: (ROKα/ROCK-II, (aa 11-552), human active); purchased Upstate Biotechnology Co., Lake Placid, N.Y. 14-451
Sequence (O75116 11-552): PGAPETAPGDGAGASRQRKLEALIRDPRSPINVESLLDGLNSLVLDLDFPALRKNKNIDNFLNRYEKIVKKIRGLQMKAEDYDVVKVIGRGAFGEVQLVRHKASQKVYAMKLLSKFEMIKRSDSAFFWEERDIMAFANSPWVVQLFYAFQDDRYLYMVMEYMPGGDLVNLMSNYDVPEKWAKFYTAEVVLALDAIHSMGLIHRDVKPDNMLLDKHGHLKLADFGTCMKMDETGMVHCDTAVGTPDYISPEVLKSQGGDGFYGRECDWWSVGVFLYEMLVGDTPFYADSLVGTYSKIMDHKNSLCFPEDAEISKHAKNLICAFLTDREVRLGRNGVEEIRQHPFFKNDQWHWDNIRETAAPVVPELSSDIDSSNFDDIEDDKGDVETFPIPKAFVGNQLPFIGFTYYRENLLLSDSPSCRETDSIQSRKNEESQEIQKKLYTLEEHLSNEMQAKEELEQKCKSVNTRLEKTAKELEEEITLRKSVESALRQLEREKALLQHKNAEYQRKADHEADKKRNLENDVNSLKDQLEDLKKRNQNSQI
measurement-description: ROCK-II inhibition, fluorescence polarization assay (IMAP ROCK II kit)
Type: biochemical
experimental-conditions: substrate 200 nM, ATP 10 μM, 60 min at 23° C., read-out: Enzyme Inhibition Constants (IC50) against Human Recombinant ROCK-II Enzyme
Counter-ions that a name gives are not always drawn.
Below, each entry is listed alongside its reported IC50.

compound | IC50, nM
c1cc2[nH]ncc2cc1-c1cnc(N2CCCC2)c(N2CCCNCC2)n1 [Example 42, hydrochloride] | 0.033
c1cc(-c2cnc(N3CCCC3)c(OC3CCNCC3)n2)ccn1 | 0.084
CN1CCCN(c2nc(-c3ccncc3)cnc2N2CCCC2)CC1 [Example 38, hydrochloride] | 0.33
CN1CCCN(c2nc(-c3ccnc4[nH]ccc34)cnc2N)CC1 | 0.53

Data credit: patent US20100216777A1
